// data source = patent US20150020916A1

property: light transmittance value

CCCCCCCCCCCCCCCCCC(=O)OCCCC [butyl stearate] :: about 100%
CCCCCCCCCCCCCC(C)C :: about 100%
CCCCCCCCCCCCCCCC(=O)OC(C)C [isopropyl palmitate] :: about 101%
CCCCCCCCCCCCCC(=O)OC(C)C [isopropyl myristate] :: about 101%
